Below: a set of entries, each annotated with reported kon.
- study.system: T1, sIL-6R (soluble IL-6 receptor; SBH Sciences) (human, UniProt P08887 20-365)
- T1 construct: also called human IL-6R
- T1 sequence: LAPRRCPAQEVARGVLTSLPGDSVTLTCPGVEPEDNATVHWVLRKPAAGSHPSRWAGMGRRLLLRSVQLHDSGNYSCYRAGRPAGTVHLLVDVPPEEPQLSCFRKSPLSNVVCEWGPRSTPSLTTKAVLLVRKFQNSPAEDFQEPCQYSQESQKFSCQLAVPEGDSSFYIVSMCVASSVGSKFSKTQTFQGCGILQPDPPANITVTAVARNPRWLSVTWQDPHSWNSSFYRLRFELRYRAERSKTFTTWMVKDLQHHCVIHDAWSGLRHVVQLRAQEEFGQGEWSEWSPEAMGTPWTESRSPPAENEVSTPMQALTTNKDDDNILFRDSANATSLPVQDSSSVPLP
- protocol.details: SPR (BIAcore 3000), antibody on chip, sIL-6R analyte, 25 C
Answer in M⁻¹ s⁻¹, number only, no unit symbol.

Illustrative cases are given below, each with its answer.
68# (antibody, human IgG1, kappa, V domains shown, also called Sample # 68) VH: QVQLQESGPGLVRPSQTLSLTCTVSGYSITSDHAWSWVRQPPGRGLEWIGFISYSGMTTYNPSLKSRVTMLRDTSKNQFSLRLSSVTAADTAVYYCARCLARITAIDYFGQGSLVTVSS VL: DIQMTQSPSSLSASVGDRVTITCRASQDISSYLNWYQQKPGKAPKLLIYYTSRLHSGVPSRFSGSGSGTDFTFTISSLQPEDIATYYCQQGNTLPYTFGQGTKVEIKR yielded kon of 291000

// field: kon; key: 66# (antibody, human IgG1, kappa, V domains shown, also called Sample # 66) VH: QVQLQESGPGLVRPSQTLSLTCTVSGYSITSDHAWSWVRQPPGRGLEWIGFISYSGMTTYNPSLKSRVTMLRDTSKNQFSLRLSSVTAADTAVYYCARSLARMTAMDYWGQGSLVTVSS VL: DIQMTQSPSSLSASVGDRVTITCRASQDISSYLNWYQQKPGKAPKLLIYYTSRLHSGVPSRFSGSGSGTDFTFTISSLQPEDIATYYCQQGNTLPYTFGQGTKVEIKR ; value = 239000

kon reported for this binder 202# (antibody, human IgG1, kappa, V domains shown) VH: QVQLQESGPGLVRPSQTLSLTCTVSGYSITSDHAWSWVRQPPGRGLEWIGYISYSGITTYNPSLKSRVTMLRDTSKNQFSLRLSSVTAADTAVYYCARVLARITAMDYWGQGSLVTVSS VL: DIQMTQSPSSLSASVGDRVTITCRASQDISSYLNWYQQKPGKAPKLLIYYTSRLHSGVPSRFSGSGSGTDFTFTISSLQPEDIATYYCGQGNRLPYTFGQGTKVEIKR : 85300

# kon of 64# (antibody, human IgG1, kappa, V domains shown, also called Sample # 64) VH: QVQLQESGPGLVRPSQTLSLTCTVSGYSITSDHAWSWVRQPPGRGLEWIGFISYSGMTTYNPSLKSRVTMLRDTSKNQFSLRLSSVTAADTAVYYCARCLARMTAMDYWGQGSLVTVSS VL: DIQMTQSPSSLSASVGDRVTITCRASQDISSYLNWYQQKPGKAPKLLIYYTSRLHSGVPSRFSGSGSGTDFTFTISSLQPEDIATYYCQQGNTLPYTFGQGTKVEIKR = 214000

---
Record summary for 203# (antibody, human IgG1, kappa, V domains shown, also called Sample # 203) VH: QVQLQESGPGLVRPSQTLSLTCTVSGYSITSDHAWSWVRQPPGRGLEWIGYISYSGITTYNPSLKSRVTMLRDTSKNQFSLRLSSVTAADTAVYYCARCLARMTAMDYWGQGSLVTVSS VL: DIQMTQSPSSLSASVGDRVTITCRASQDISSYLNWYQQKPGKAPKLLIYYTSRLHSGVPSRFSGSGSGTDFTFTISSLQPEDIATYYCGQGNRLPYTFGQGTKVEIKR : reported kon = 95000
